test: plasma concentration of ibogaine and its metabolite 12-hydroxy ibogamine over time after ibogaine administration to a human patient; format: in vivo; conditions: plasma, after about 24 hours (FIG. 1)
QUANTITY: concentration at 24 h

Reported concentration at 24 h, molecule CC[C@H]1C[C@H]2C[C@H]3c4[nH]c5ccc(OC)cc5c4CCN(C2)C13 [ibogaine, reference compound] : ____ < 200 ng/mL
